Every entry's value here was drawn from PubChem BioAssay (NCI).

Test system: BT-549 breast
experiment_description: NCI-60 one-dose screen, 48 h (100 = growth as untreated, 0 = no growth, -100 = all killed)
assay_conditions: 10 µM unless noted
Procedure: Growth inhibition of the BT-549 human tumor cell line is measured as a screen for anti-cancer activity. Cells are grown in 96 well plates and exposed to the test compound for 48 hours. Compounds are tested at a single concentration, which is 10^-5 M for most compounds. The reported endpoint is percent growth (GI% or GIPRCNT), where numbers from 0 - 100% represent growth inhibition, and numbers from -100% - 0 represent cell death. For example, a value of 40 represents 60% growth inhibition. […]
The panel holds about 83,000 compounds, 20% with a hit somewhere; the sample as a whole holds those more often.
recorded_endpoint: growth (%)
All answers are understood in %, so give the number only.

# compound, value
data = [
    ("NS(=O)(=O)c1ccc(CCNC(=O)CSc2ccc(-c3ccc(Br)cc3)nn2)cc1", 39.5),
    ("COC1=C[C@]23CCC(=O)N2CCc2cc4c(cc2[C@@H]3[C@@H]1OC(=O)[C@H](C)O)OCO4", 2.51),
    ("CCN(CC)c1ccc(/C=N/Nc2nc(-c3ccc(C)cc3)cs2)c(O)c1", 71.9),
    ("COc1cc(/C=C/C(=O)c2nnn(-c3ccc(Cl)cc3)c2C)cc(OC)c1OC", 36.8),
]

Item "O=C(Cn1c(/C=C/c2ccccc2)nc2ccccc2c1=O)Nc1ccc(Cl)cc1" ; assay system BT-549 breast; growth reported as 89

Item "CN1CCN(/C(=N\c2sc(-c3ccccc3)nc2-c2ccccc2)c2ccccc2)CC1" ; assay system BT-549 breast; growth reported as 77.5

Item "COc1ccc(-c2nc3cc(C)ccc3n2CC(=O)N=Nc2c(O)[nH]c3ccc(Cl)cc23)cc1" ; assay system BT-549 breast; growth reported as -43.7

Item Cc1sc(C(NC(=O)OCCn2c([N+](=O)[O-])cnc2C)C(F)(F)Cl)nc1-c1ccc(OC(F)(F)F)cc1 (centres undefined) ; assay system BT-549 breast; growth reported as -92.2
